assay-target: T1, BMPRII receptor-Fc fusion (UniProt Q13873 27-151, limits assumed)
T1 construct: BMP receptor-Fc fusion used at 5 ug/mL
T1 sequence (looked up): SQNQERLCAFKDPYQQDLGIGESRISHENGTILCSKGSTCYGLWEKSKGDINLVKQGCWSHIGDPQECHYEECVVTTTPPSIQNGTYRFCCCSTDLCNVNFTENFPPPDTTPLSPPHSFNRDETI
test-name: ELISA-like plate assay, captured BMP-7 from conditioned media, receptor-Fc detection
Reported values of BMPRII binding (relative to wild type = 1.0) for individual entries

[
  {
    "binder": "BMP-7 variant F73Q (ligand, In conditioned media; numbering on mature BMP-7) STGGKQRSQNRSKTPKNQEALRMASVAENSSSDQRQACKKHELYVSFRDLGWQDWIIAPEGYAAYYCEGECAQPLNSYMNATNHAIVQTLVHFINPETVPKPCCAPTQLNAISVLYFDDSSNVILKKYRNMVVRACGCH",
    "result": "2.85 relative to wild type"
  }
]

With those in mind, consider the next binder.
Please give the documented BMPRII binding (relative to wild type = 1.0) of BMP-7 variant Q53R (ligand, In conditioned media; numbering on mature BMP-7) STGGKQRSQNRSKTPKNQEALRMASVAENSSSDQRQACKKHELYVSFRDLGWRDWIIAPEGYAAYYCEGECAFPLNSYMNATNHAIVQTLVHFINPETVPKPCCAPTQLNAISVLYFDDSSNVILKKYRNMVVRACGCH 0.96 relative to wild type
